Target entity: T1, IL-2 receptor βγ complex (human, UniProt P14784 27-551; P31785 23-369)
T1 sequence (looked up) 1: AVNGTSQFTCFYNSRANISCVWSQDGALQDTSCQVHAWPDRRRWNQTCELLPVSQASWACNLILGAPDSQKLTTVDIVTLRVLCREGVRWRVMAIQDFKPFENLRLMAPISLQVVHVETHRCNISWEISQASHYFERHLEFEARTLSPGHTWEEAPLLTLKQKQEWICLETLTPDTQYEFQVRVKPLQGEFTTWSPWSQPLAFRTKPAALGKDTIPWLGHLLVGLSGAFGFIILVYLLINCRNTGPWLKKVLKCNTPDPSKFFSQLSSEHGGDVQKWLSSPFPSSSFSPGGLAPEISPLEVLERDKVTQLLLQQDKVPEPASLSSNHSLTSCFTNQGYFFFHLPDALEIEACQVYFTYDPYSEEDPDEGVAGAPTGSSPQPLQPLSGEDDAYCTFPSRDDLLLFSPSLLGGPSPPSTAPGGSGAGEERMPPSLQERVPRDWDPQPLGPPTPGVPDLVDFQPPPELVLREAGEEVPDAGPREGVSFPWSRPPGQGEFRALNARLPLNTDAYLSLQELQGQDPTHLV
T1 sequence (looked up) 2: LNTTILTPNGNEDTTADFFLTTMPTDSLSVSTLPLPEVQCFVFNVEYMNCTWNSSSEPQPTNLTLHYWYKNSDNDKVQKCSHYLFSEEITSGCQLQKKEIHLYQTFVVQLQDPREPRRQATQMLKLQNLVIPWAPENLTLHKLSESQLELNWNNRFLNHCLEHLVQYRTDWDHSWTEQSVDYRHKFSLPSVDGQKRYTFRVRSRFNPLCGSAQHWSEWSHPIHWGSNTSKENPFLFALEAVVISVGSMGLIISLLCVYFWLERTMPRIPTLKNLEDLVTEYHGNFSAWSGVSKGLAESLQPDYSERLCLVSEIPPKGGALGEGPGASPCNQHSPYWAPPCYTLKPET
Protocol: cell-based or functional assay
Primed or numbered codes have the meaning given here. [ ]: non-standard residue; d: D form. Ygp″ = O-(8x polyethylene glycol-amino)-tyrosine; Yn3″ = O-(9x polyethylene glycol-azido)-tyrosine; hSer = N[C@@H](CCO)C(=O)O; Nle = CCCC[C@H](N)C(=O)O
Value type: Average EC50, pSTAT5 Assay in NK cells (nM)
Answer in nM, number only, no unit symbol.

Prompt line: Need Average EC50, pSTAT5 Assay in NK cells of CMP-326, MMP2 cleaved molecule (ligand, not fully specified; ends and bridges not checked; also: Lys9-Glu23 peptide bridge cut by MMP2, fragments left on side chains not given here) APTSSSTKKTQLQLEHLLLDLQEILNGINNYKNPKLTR[Nle]L[hSer][Yn3″]KF[Ygp″][Nle]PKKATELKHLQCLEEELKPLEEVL[hSer]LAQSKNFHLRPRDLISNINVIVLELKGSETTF[hSer]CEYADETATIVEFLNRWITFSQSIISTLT , thanks.
Response line: 16

Source listed as patent US20240376170A1.
